These entries and their values trace back to patent US20250114463A1.

- testSystem: human GLP-1 receptor (human, UniProt P43220 24-463)
- experimentalDetails: cell-based or functional assay
Bridges are numbered along the chain shown (N, C = ends). Where no end group is shown, it is not given here. [ ]: non-standard residue; d: D form. The star is where a group is joined. Acetyl(2-(4-imidazolyl)) = O=C(Cc1c[nH]cn1)*; Aib = CC(C)(N)C(=O)O
Provide the recorded in vitro Activity Compared to Native Peptide (%), vs GLP-1 for the entries that follow.
Answers are plain numbers, in %.

binder | resultUnits | value
Y[Aib]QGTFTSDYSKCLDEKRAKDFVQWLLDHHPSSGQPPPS (bridge 16-20; not fully specified (C-terminus)) [triple agonist of SEQ ID NO: 70] | % | 15.1
H[Aib]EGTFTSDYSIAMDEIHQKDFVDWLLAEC (bridge 16-20; not fully specified (C-terminus)) [triple agonist of SEQ ID NO: 54] | % | 30.6
H[Aib]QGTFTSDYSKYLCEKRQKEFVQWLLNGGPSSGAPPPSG (bridge 16-20; not fully specified (C-terminus)) [triple agonist of SEQ ID NO: 36] | % | 37.4
Y[Aib]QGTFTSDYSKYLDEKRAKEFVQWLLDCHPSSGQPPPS (bridge 16-20; not fully specified (C-terminus)) [triple agonist of SEQ ID NO: 97] | % | 10.5

For every record below, what is its in vitro Activity Compared to Native Peptide (%), vs GLP-1?
1. Y[Aib]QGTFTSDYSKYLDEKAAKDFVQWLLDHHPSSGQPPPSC-NH2 (bridge 16-20) [triple agonist of SEQ ID NO: 77]
2. H[Aib]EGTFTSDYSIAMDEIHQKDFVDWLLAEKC (bridge 16-20; not fully specified (C-terminus)) [triple agonist of SEQ ID NO: 80]
3. Y[Aib]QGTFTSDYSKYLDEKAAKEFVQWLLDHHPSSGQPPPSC (bridge 16-20; not fully specified (C-terminus)) [triple agonist of SEQ ID NO: 75]
4. H[Aib]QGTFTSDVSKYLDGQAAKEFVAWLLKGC (not fully specified (C-terminus)) [triple agonist of SEQ ID NO: 7]

Output line:
[38.7, 8.1, 35.1, 13.7]

For every record below, what is its in vitro Activity Compared to Native Peptide (%), vs GLP-1?
1. H[Aib]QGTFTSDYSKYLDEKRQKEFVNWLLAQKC (bridge 16-20; not fully specified (C-terminus)) [triple agonist of SEQ ID NO: 34]
2. H[Aib]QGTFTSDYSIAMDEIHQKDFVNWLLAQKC (bridge 16-20; not fully specified (C-terminus)) [triple agonist of SEQ ID NO: 33]
3. [Acetyl(2-(4-imidazolyl))][Aib]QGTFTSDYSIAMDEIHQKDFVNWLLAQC (bridge 16-20; not fully specified (C-terminus)) [triple agonist of SEQ ID NO: 85]
4. [Acetyl(2-(4-imidazolyl))][Aib]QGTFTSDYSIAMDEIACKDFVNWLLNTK (bridge 16-20; not fully specified (C-terminus)) [triple agonist of SEQ ID NO: 61]
5. Y[Aib]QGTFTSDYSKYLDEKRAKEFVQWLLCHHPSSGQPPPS (bridge 16-20; not fully specified (C-terminus)) [triple agonist of SEQ ID NO: 95]
6. Y[Aib]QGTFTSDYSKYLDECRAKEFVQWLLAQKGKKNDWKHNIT (bridge 16-20; not fully specified (C-terminus)) [triple agonist of SEQ ID NO: 23]
7. [Acetyl(2-(4-imidazolyl))][Aib]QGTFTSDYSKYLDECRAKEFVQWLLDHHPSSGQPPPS (bridge 16-20; not fully specified (C-terminus)) [triple agonist of SEQ ID NO: 73]

Output line:
19.1
24.5
4.3
59.8
2.1
4.01
22.6
